Every entry's value here was drawn from PubChem BioAssay (NCI).

- System: UACC-257 melanoma
- ASSAY_PROCEDURE: NCI-60 one-dose screen, 48 h (100 = growth as untreated, 0 = no growth, -100 = all killed)
- TEST_PARAMETERS: 10 µM unless noted
The panel holds about 83,000 compounds, 20% with a hit somewhere; the sample as a whole holds those more often.
ASSAY_READOUT: growth (%)
The reply should contain only the number, in %.

# example entries with known answers
INSERT INTO measurements (molecule, measured) VALUES
  ('COC(=O)[C@]12CCC(C)(C)C[C@H]1[C@H]1/C(=N/OCCc3nn[nH]n3)C[C@@H]3[C@@]4(C)CC[C@H](OC(C)=O)C(C)(C)[C@@H]4CC[C@@]3(C)[C@]1(C)CC2', 16.5),
  ('C=C1C(=O)O[C@H]2[C@H]1CC/C(COC(=O)/C=C\C(=O)NCc1ccc(Cn3c(=O)sn(CCI)c3=O)cc1)=C\CC[C@@]1(C)O[C@@H]21', 67.7),
  ('COc1cc(OC)c(/C=C/C(=O)c2c(OC)cccc2OC)c(OC)c1', 43.6),
  ('CC(=O)c1c(C)nc2ccccc2c1/C=C/c1ccc(F)cc1', 95.2),
  ('COC12C=C/C(=C(/C(=O)OCc3ccncn3)C(=O)CCCCCCCCC3(OC)C=C/C(=C(/C(=O)OCc4ccncn4)C(=O)CCCCCCCC1)O3)O2', 4.41);

(Q) Lookup: growth / UACC-257 melanoma / Cc1cc(N2CCCCC2)cc(C)c1-c1csc(NC(=O)c2ccncc2)n1
(A) 33.2

(Q) Moving on to CCOC(=O)c1cc(C)n(-c2ccc(C(=O)O)cc2)c1C
(A) 96.5

(Q) Moving on to NC(Cc1ccc(O)c([N+](=O)[O-])c1)C(=O)O (stereo not drawn)
(A) 99.8

====

- Tested on: K-562 leukemia
- ASSAY_PROCEDURE: NCI-60 one-dose screen, 48 h (100 = growth as untreated, 0 = no growth, -100 = all killed)
- TEST_PARAMETERS: 10 µM unless noted
This is part of a sample that, as a whole, favours compounds with a hit. Of some 83,000 tested, about 20% had one in any assay.
Measured growth by item
The reply should contain only the number, in %.

INSERT INTO assay_data (molecule, measured) VALUES
  ('COC12C=C/C(=C(/C(=O)OCc3ccncc3)C(=O)CCCCCCCCC3(OC)C=C/C(=C(/C(=O)OCc4ccncc4)C(=O)CCCCCCCC1)O3)O2', -4.08),
  ('CCOC(=O)c1cc2c(n1C)-c1nc(NC(C)=O)sc1CCC2', 96.6);

(Q) Record request: growth value, item CCC1=C[C@@H]2C[C@]3(C(=O)OC)c4[nH]c5ccccc5c4CC[N@+](CC(=O)Nc4cc5c(cc4OC)N(C)[C@H]4[C@@](O)(C(=O)OC)[C@H](OC(C)=O)[C@]6(CC)C=CCN7CC[C@]54[C@@H]76)(C2)[C@H]13
(A) 106

(Q) Moving on to O=C1/C(=C/c2cn(-c3ccccc3)nc2-c2ccccc2)SC(=S)N1C1CCCCC1
(A) 101

(Q) Moving on to c1ccc([P+](c2ccccc2)(c2ccccc2)c2ccc3c4ccc([P+](c5ccccc5)(c5ccccc5)c5ccccc5)c5cccc(c6cccc2c63)c54)cc1
(A) 11.8

(Q) Moving on to O=S(=O)(NCCNc1nccc(-c2c(-c3ccc(F)c(O)c3)nc3occn23)n1)c1ccc(Cl)cc1
(A) 73.8

(Q) Moving on to Nc1n[nH]c2cccc(C#Cc3cccc(NC(=O)c4cc(F)cc(C(F)(F)F)c4)c3)c12
(A) 9.27

(Q) Moving on to CCO/C=N/C1=C(C#N)C(c2ccc(Cl)cc2)c2sc3c(F)cccc3c2O1 (configuration not stated)
(A) 24.6

(Q) Moving on to CCCc1c(OC(=O)c2ccccc2)nc2[nH]c(=O)sc2c1C
(A) 112

(Q) Moving on to CCCOC(=O)Nc1nc2ccc(SCC(C)C)cc2s1
(A) 20.8

====

- System: SNB-19 CNS
- ASSAY_PROCEDURE: NCI-60 one-dose screen, 48 h
- TEST_PARAMETERS: 10 µM unless noted
Compounds without any hit were thinned out: in the full panel of roughly 83,000, 20% have a hit. Active and inactive are the calls of the source. Rule for the calls: active = growth percent below 10; inactive = the rest.
Entry note: the call must match one of y (active), n (inactive)

See these solved cases before continuing.
INSERT INTO measurements (compound, measured_target, label_class) VALUES
  ('N#Cc1c(-c2ccccc2)cc(-c2ccc(Nc3nc(Nc4ccc(Cl)cc4)nc(Nc4ccc(Cl)cc4)n3)cc2)nc1N', 'SNB-19 CNS', 'n'),
  ('N#Cc1ccc(O)c(C2=NCC(c3ccccc3)O2)c1 (stereo not given)', 'SNB-19 CNS', 'n'),
  ('COc1ccc(C(=O)/C=C/c2c(C(F)(F)F)nc3ccccn23)cc1OC', 'SNB-19 CNS', 'n');

We next turn to a different compound, shown below.
(Q) Kindly provide the recorded test outcome for the following compound: N#Cc1ccc(O)c(C2=NCC(c3cccc(Oc4ccccc4)c3)O2)c1 (stereo not given)
(A) n

====

- Test system: NCI-H322M lung
- ASSAY_PROCEDURE: NCI-60 one-dose screen, 48 h
- TEST_PARAMETERS: 10 µM unless noted
Compounds without any hit were thinned out: in the full panel of roughly 83,000, 20% have a hit. Activity calls are given as the source filed them. How the source made its calls: active means growth percent below 10; inactive means the rest.
Entry note: the call must match one of Yes (active), No (inactive)

See these solved cases before continuing.
INSERT INTO results (compound, label_class) VALUES
  ('Cc1cn(-c2cc(NC(=O)c3cccc(C#Cc4cccc5[nH]nc(N)c45)c3)cc(C(F)(F)F)c2)cn1', 'No'),
  ('CC(C)=CC(=O)OCC(=O)O[C@@H]1C[C@]2(C(C)C)O[C@@]1(C)[C@@H]1CC[C@@H](C)[C@H]1[C@@H]2OC(=O)/C=C/c1ccccc1', 'No'),
  ('CC(C)(Sc1cc(C(C)(C)C)c(OC(=O)CCCC(=O)O)c(C(C)(C)C)c1)Sc1cc(C(C)(C)C)c(OC(=O)CCCC(=O)O)c(C(C)(C)C)c1', 'No'),
  ('Cn1ccc(=O)c(C(=O)Nc2nsc3ccc([N+](=O)[O-])cc23)c1', 'No'),
  ('COC(=O)[C@]12CCC(C)(C)C[C@H]1[C@H]1/C(=N/OCCc3nn[nH]n3)C[C@@H]3[C@@]4(C)CC[C@H](OC(C)=O)C(C)(C)[C@@H]4CC[C@@]3(C)[C@]1(C)CC2', 'No');

(Q) Kindly provide the recorded test outcome for the following compound: O=C1/C(=C/c2ccccc2Br)COc2ccc(O)cc21
(A) No

(Q) Moving on to CC(C)(C)[Si](C)(C)OC1[C@@H](CNC(=O)NC(=O)NC(N)=O)O[C@@H](n2cnc3c(NC(=O)Nc4ccccc4)ncnc32)[C@H]1O[Si](C)(C)C(C)(C)C (stereo partly specified)
(A) No

(Q) Moving on to CCO/C=N/C1=C(C#N)C(c2ccc(Cl)cc2)c2sc3c(F)cccc3c2O1 (stereo unspecified)
(A) No

(Q) Moving on to CC1CCc2c(C(=O)Nc3ncc(Cc4cccc([N+](=O)[O-])c4)s3)csc2C1 (stereo unspecified)
(A) No

(Q) Moving on to CCCCCCCC[C@@H]1N[C@@H](C(=O)OC)Cc2c1[nH]c1ccccc21
(A) No

(Q) Moving on to CCC(=C(c1ccc(OCCN2CCCCC2)cc1)c1ccc(OCCN2CCCCC2)cc1)c1ccc(Cl)cc1
(A) Yes

====

- Tested on: HCC-2998 colon
- ASSAY_PROCEDURE: NCI-60 one-dose screen, 48 h
- TEST_PARAMETERS: 10 µM unless noted
This is part of a sample that, as a whole, favours compounds with a hit. Of some 83,000 tested, about 20% had one in any assay. Activity calls are given as the source filed them. Rule for the calls: active = growth percent below 10; inactive = the rest.
Entry note: the call must match one of YES for active, NO for inactive

See these solved cases before continuing.
INSERT INTO measurements (compound, label_class) VALUES
  ('CCSc1nc2scc(C)c2c(=O)[nH]1', 'NO'),
  ('CCOC(=O)Cc1cnc(N/N=C(\C)c2cc3ccccc3o2)s1', 'NO'),
  ('Cc1cc(S(=O)(=O)/N=C(\N)n2nc(C)c(C)c2C)c(SCc2ccccc2)cc1Cl', 'NO'),
  ('C=CCOC(=O)Nc1cccn([C@H](Cc2ccccc2)C(=O)NCCC(C)C)c1=O', 'NO'),
  ('Cn1ccnc1C(=O)/C=C/c1ccc(C(=O)Nc2ccc(Cl)cc2)cc1', 'YES');

(Q) Kindly provide the recorded test outcome for the following compound: Cc1ccc2c(n1)C(=O)C(Br)=C(C1CCCC1)C2=O
(A) NO

(Q) Moving on to COC(=O)CC[C@@H]1O[C@@H](c2cccc(C(F)(F)F)c2)[C@@H](O)[C@H]1O
(A) NO

(Q) Moving on to O=C1NC(=C(Cl)Cl)/C(=N\S(=O)(=O)NCc2ccccc2)N1
(A) NO

(Q) Moving on to CC(C)(C)CC(C)(C)NC(=O)Nc1ncccc1OCc1ccccc1
(A) NO

(Q) Moving on to COC12C=C/C(=C(/C(=O)OCc3ccncn3)C(=O)CCCCCCCCC3(OC)C=C/C(=C(/C(=O)OCc4ccncn4)C(=O)CCCCCCCC1)O3)O2
(A) YES

(Q) Moving on to CC1CN(S(=O)(=O)c2oc(-c3ccc(Cl)cc3)nc2C#N)CC(C)O1 (centres undefined)
(A) NO

(Q) Moving on to O=C1Nc2ccccc2/C1=C/c1nc2ccccc2c(=O)[nH]1
(A) NO

(Q) Moving on to Cc1ccc(CNc2ccc3nc(CCC4CCCCC4)[nH]c3c2)cc1
(A) YES

(Q) Moving on to NC(=O)c1ccc(-c2c3ccccc3cc3c2ccc2ccccc23)cc1
(A) NO

(Q) Moving on to C1CN(SSN2CCOCC2)CCO1
(A) NO

(Q) Moving on to COCCOc1cc2ncnc(N3CCN(c4ncc(S(=O)(=O)N5CCCCC5)cn4)CC3)c2cc1OCCOC
(A) NO
